Source listed as patent US10654917B2.

- System: bEnd3 cells
- ASSAY_COMMENT: Uptake test: cellular interaction (acid wash) and internalization (lysate)
- Type: cell-based
- STATED_CONDITIONS: GaCl3; 5 hours
Measured Cellular interaction by item
Report the figure along with its unit, number first.

SUBSTANCE	Cellular interaction
KLFMALVAFLRFLT [PepH2]	1.48 ± 0.1%

### Prompt Query the reported Cellular interaction for bEnd3 cells; item: VQQLTKRFSL (Dengue virus 2; /note=“#PepH1”)
### Response 0.80 ± 0.3%

### Prompt What reported Cellular interaction corresponds to KSKAINVLRGFRKEIGRMLNILN [PepH4] on bEnd3 cells?
### Response 3.00 ± 0.1%

### Prompt # returns recorded Cellular interaction (system: bEnd3 cells) for AGILKRW (Dengue virus 2; /note=“#PepH3 (PEP+)”)
### Response 0.73 ± 0.0%
